target: Nuclear receptor ROR-beta (Homo sapiens); experiment: Antagonist activity at human RORbeta1 expressed in HEK293 cells after 24 hrs by luciferase reporter gene assay
Sequence (Q92753 whole entry): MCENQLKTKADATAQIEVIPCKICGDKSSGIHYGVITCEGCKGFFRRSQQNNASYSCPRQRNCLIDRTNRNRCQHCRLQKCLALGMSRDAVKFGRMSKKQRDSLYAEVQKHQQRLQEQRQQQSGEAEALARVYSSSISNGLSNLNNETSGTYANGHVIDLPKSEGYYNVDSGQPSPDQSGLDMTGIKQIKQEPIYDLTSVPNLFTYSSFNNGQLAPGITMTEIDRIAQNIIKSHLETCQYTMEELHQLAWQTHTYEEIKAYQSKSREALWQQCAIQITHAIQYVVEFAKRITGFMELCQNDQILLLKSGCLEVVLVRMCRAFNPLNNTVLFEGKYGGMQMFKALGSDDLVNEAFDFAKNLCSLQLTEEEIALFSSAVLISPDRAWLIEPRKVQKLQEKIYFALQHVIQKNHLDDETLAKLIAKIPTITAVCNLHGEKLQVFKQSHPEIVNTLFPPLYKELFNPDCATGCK
pIC50: −log10 of the molar value.
Documented pIC50 across a set of compounds
Endpoint Name: pIC50

>  <Sample Smiles>
Cc1cc(C(O)(C(F)(F)F)C(F)(F)F)cc2c1[nH]c(=O)c1ccccc12

>  <Val>
< 4.70

$$$$
>  <Sample Smiles>
Cc1cc(C(O)(C(F)(F)F)C(F)(F)F)cc2c1[nH]c(=O)c1cc(F)ccc12

>  <Val>
< 4.70

$$$$
>  <Sample Smiles>
Cc1cc(C(O)(C(F)(F)F)C(F)(F)F)cc2c3ccc(F)cc3c(=O)n(C)c12

>  <Val>
< 4.70

$$$$

###

Item-by-item account of pIC50
molecular target: Progesterone receptor (Homo sapiens); test: Antagonist activity at PR in human T47D cells assessed as inhibition of progesterone-induced alkaline phosphatase activity measured after 24 hrs; type: cell-based
pIC50: −log10 of the molar value.

>  <Sample Smiles>
Cn1c(C#N)ccc1-c1ccc2oc(=O)ccc2c1

>  <pIC50>
6.91

$$$$
>  <Sample Smiles>
CCCCn1c(=O)c2cccc(OC)c2c2cc(C(O)(C(F)(F)F)C(F)(F)F)ccc21

>  <pIC50>
5.57

$$$$
>  <Sample Smiles>
COc1cc(C(O)(C(F)(F)F)C(F)(F)F)cc2c1[nH]c(=O)c1ccccc12

>  <pIC50>
6.57

$$$$
>  <Sample Smiles>
CCn1c(=O)c2ccccc2c2cc(C(O)(C(F)(F)F)C(F)(F)F)ccc21

>  <pIC50>
5.85

$$$$
>  <Sample Smiles>
CCCCn1c(=O)c2ccccc2c2c(OC)c(C(O)(C(F)(F)F)C(F)(F)F)ccc21

>  <pIC50>
5.40

$$$$

###

target: Progesterone receptor (Homo sapiens, UniProt P06401); assay: Antagonist activity at PR in human T47D cells assessed as inhibition of progesterone-induced alkaline phosphatase activity measured after 24 hrs; type: cell-based
Sequence (P06401 whole entry): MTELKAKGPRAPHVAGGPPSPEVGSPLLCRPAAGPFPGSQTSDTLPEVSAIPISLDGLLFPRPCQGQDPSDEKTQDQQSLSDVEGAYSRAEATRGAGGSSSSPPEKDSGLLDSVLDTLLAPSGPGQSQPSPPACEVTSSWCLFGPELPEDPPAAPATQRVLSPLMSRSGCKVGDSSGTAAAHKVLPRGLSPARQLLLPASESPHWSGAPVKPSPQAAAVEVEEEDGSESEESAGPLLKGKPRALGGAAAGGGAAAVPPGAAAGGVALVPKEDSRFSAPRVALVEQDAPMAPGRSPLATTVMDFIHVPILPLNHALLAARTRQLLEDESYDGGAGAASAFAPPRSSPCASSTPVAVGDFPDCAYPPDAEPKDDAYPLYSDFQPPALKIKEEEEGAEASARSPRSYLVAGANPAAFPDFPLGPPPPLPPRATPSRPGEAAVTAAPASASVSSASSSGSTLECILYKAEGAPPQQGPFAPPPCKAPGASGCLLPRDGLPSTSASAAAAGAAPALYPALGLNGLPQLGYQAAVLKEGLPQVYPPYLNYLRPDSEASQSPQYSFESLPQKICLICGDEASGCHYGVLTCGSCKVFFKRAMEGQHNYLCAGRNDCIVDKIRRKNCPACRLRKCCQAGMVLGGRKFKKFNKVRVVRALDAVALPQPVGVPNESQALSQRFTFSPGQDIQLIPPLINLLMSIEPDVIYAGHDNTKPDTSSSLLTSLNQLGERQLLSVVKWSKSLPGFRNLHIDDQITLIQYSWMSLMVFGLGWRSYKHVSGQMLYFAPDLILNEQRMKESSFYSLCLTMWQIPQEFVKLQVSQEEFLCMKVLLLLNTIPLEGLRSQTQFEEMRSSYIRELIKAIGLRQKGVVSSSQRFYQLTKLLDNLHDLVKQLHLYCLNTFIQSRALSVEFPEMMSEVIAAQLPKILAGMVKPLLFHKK
Criterion: IC50 strictly under 6000 nM. Met: YES. Not met: NO.

>  <Sample Smiles>
Cc1cc(C(O)(C(F)(F)F)C(F)(F)F)cc2c1[nH]c(=O)c1ccccc12

>  <Experimental Target>
Progesterone receptor (Homo sapiens, UniProt P06401)

>  <Label Value>
YES

$$$$
>  <Sample Smiles>
O=c1[nH]c2ccc(C(O)(C(F)(F)F)C(F)(F)F)cc2c2ccccc12

>  <Experimental Target>
Progesterone receptor (Homo sapiens, UniProt P06401)

>  <Label Value>
YES

$$$$
>  <Sample Smiles>
CCCCn1c(=O)c2ccccc2c2ccccc21

>  <Experimental Target>
Progesterone receptor (Homo sapiens, UniProt P06401)

>  <Label Value>
NO

$$$$
>  <Sample Smiles>
CCCCn1c(=O)c2ccc(OC)cc2c2cc(C(O)(C(F)(F)F)C(F)(F)F)ccc21

>  <Experimental Target>
Progesterone receptor (Homo sapiens, UniProt P06401)

>  <Label Value>
YES

$$$$
>  <Sample Smiles>
CCCc1cc(C(O)(C(F)(F)F)C(F)(F)F)cc2c1[nH]c(=O)c1ccccc12

>  <Experimental Target>
Progesterone receptor (Homo sapiens, UniProt P06401)

>  <Label Value>
YES

$$$$
>  <Sample Smiles>
O=c1[nH]c2ccc(C(O)(C(F)(F)F)C(F)(F)F)cc2c2ccc(F)cc12

>  <Experimental Target>
Progesterone receptor (Homo sapiens, UniProt P06401)

>  <Label Value>
YES

$$$$
>  <Sample Smiles>
O=c1[nH]c2c(F)cc(C(O)(C(F)(F)F)C(F)(F)F)cc2c2ccccc12

>  <Experimental Target>
Progesterone receptor (Homo sapiens, UniProt P06401)

>  <Label Value>
YES

$$$$
>  <Sample Smiles>
CCCCCCCCCn1c(=O)c2ccccc2c2cc(C(O)(C(F)(F)F)C(F)(F)F)ccc21

>  <Experimental Target>
Progesterone receptor (Homo sapiens, UniProt P06401)

>  <Label Value>
NO

$$$$
>  <Sample Smiles>
O=c1[nH]c2ccc(C(O)(C(F)(F)F)C(F)(F)F)cc2c2cc(F)ccc12

>  <Experimental Target>
Progesterone receptor (Homo sapiens, UniProt P06401)

>  <Label Value>
YES

$$$$
>  <Sample Smiles>
CCCCn1c(=O)c2ccccc2c2cc(CO)ccc21

>  <Experimental Target>
Progesterone receptor (Homo sapiens, UniProt P06401)

>  <Label Value>
NO

$$$$

###

molecular target: Oxysterols receptor LXR-beta (Homo sapiens, UniProt P55055); experiment: Antagonist activity at human GAL4N-fused LXRbeta LBD expressed in HEK293 cells assessed as reduction in T0901317-induced transactivation activity after 24 hrs by luciferase reporter gene assay
Sequence (P55055 whole entry, the tested form may be a part): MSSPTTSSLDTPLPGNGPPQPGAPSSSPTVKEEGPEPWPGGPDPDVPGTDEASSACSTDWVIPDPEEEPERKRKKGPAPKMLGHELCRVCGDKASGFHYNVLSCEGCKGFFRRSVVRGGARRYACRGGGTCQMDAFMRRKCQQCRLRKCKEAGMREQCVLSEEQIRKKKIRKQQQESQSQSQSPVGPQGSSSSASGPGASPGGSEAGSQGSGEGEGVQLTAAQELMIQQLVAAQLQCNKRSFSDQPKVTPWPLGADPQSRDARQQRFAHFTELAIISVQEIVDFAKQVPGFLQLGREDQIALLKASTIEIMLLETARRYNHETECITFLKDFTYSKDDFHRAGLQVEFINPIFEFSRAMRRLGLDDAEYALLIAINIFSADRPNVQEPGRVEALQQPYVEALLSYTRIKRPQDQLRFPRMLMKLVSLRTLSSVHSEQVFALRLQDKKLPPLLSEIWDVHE
pIC50: −log10 of the molar value.

>  <Sample Smiles>
Cc1cc(C(O)(C(F)(F)F)C(F)(F)F)cc2c1[nH]c(=O)c1ccccc12

>  <pIC50>
< 4.70

$$$$
>  <Sample Smiles>
Cc1cc(C(O)(C(F)(F)F)C(F)(F)F)cc2c3ccc(F)cc3c(=O)n(C)c12

>  <pIC50>
< 4.70

$$$$

###

target: Progesterone receptor (Homo sapiens, UniProt P06401); assay: Agonist activity at PR in human T47D cells at 10 uM; assay type: cell-based
Endpoint Name: Activity

>  <Sample Smiles>
Cc1cc(C(O)(C(F)(F)F)C(F)(F)F)cc2c1[nH]c(=O)c1cc(F)ccc12

>  <Val>
Not Active

$$$$
>  <Sample Smiles>
O=S(=O)(Nc1ccc(Oc2ccccc2)cc1)c1cccc(C(F)(F)F)c1

>  <Val>
Not Active

$$$$
>  <Sample Smiles>
CC#C[C@]1(O)CC[C@H]2[C@@H]3CCC4=CC(=O)CCC4=C3[C@@H](c3ccc(N(C)C)cc3)C[C@@]21C

>  <Val>
Not Active

$$$$
>  <Sample Smiles>
Cc1cc(C(O)(C(F)(F)F)C(F)(F)F)cc2c1[nH]c(=O)c1ccccc12

>  <Val>
Not Active

$$$$
>  <Sample Smiles>
Cn1c(C#N)ccc1-c1ccc2oc(=O)ccc2c1

>  <Val>
Not Active

$$$$
>  <Sample Smiles>
Cc1cc(C(O)(C(F)(F)F)C(F)(F)F)cc2c3ccc(F)cc3c(=O)n(C)c12

>  <Val>
Not Active

$$$$

###

Molecular target: Nuclear receptor ROR-gamma (Homo sapiens)
Sequence (P51449 whole entry): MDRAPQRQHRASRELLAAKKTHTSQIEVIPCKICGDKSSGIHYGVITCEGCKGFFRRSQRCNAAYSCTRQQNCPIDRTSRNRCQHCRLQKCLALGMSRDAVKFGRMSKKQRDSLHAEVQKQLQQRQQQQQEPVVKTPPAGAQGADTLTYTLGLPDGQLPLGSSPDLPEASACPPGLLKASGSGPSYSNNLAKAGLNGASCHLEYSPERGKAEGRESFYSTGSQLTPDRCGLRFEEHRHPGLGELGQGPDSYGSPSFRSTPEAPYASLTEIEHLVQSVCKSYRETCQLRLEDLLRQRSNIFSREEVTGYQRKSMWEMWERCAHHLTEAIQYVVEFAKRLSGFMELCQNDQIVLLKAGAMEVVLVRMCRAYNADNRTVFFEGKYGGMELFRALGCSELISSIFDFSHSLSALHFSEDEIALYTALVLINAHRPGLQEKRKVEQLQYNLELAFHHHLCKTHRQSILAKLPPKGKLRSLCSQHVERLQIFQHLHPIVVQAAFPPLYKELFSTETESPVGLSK
Experiment: Antagonist activity at human RORgamma1 expressed in HEK293 cells after 24 hrs by luciferase reporter gene assay
Endpoint Name: IC50

>  <Sample Smiles>
Cc1cc(C(O)(C(F)(F)F)C(F)(F)F)cc2c1[nH]c(=O)c1ccccc12

>  <Experimental Target>
Nuclear receptor ROR-gamma (Homo sapiens)

>  <Val>
> 20 µM

$$$$

###

molecular target: UniProtKB P06401; assay: Displacement of [1,2,6,7-3H]progesterone from recombinant human GST-tagged PGR LBD (678 to 933 residues) expressed in baculovirus-infected insect cells measured after 24 hrs by liquid scintillation counting method
Quick reference for IC50 among some compounds

>  <Sample Smiles>
Cc1cc(C(O)(C(F)(F)F)C(F)(F)F)cc2c1[nH]c(=O)c1ccccc12

>  <Experimental Target>
UniProtKB P06401

>  <IC50 (µM)>
1.5

$$$$
>  <Sample Smiles>
Cc1cc(C(O)(C(F)(F)F)C(F)(F)F)cc2c1[nH]c(=O)c1cc(F)ccc12

>  <Experimental Target>
UniProtKB P06401

>  <IC50 (µM)>
0.34

$$$$
>  <Sample Smiles>
Cc1cc(C(O)(C(F)(F)F)C(F)(F)F)cc2c3ccc(F)cc3c(=O)n(C)c12

>  <Experimental Target>
UniProtKB P06401

>  <IC50 (µM)>
0.15

$$$$

###

As shown below, each of these compounds has a reported IC50 value.
target: Progesterone receptor (Homo sapiens); assay: Antagonist activity at PR in human T47D cells assessed as inhibition of progesterone-induced alkaline phosphatase activity measured after 24 hrs; type: cell-based
Endpoint Name: IC50 (nM)

>  <Sample Smiles>
CCCCn1c(=O)c2ccccc2c2cc(C(C)(C)C)ccc21

>  <Endpoint Name>
IC50

>  <Units Label>
nM

>  <Val>
8300

$$$$
>  <Sample Smiles>
CCCCn1c(=O)c2ccccc2c2cc(C)ccc21

>  <Endpoint Name>
IC50

>  <Units Label>
nM

>  <Val>
7900

$$$$
>  <Sample Smiles>
CCCCCCn1c(=O)c2ccccc2c2cc(C(O)(C(F)(F)F)C(F)(F)F)ccc21

>  <Endpoint Name>
IC50

>  <Units Label>
nM

>  <Val>
2500

$$$$
>  <Sample Smiles>
CCCn1c(=O)c2ccccc2c2cc(C(O)(C(F)(F)F)C(F)(F)F)ccc21

>  <Endpoint Name>
IC50

>  <Units Label>
nM

>  <Val>
3800

$$$$
>  <Sample Smiles>
CCCCn1c(=O)c2c(OC)cccc2c2cc(C(O)(C(F)(F)F)C(F)(F)F)ccc21

>  <Endpoint Name>
IC50

>  <Units Label>
nM

>  <Val>
12000

$$$$
>  <Sample Smiles>
CCCCn1c(=O)c2ccccc2c2cc(C(O)(C(F)(F)F)C(F)(F)F)c(OC)cc21

>  <Endpoint Name>
IC50

>  <Units Label>
nM

>  <Val>
410

$$$$
>  <Sample Smiles>
CCc1cc(C(O)(C(F)(F)F)C(F)(F)F)cc2c1[nH]c(=O)c1ccccc12

>  <Endpoint Name>
IC50

>  <Units Label>
nM

>  <Val>
210

$$$$
>  <Sample Smiles>
Cc1cc(C(O)(C(F)(F)F)C(F)(F)F)cc2c1[nH]c(=O)c1cc(F)ccc12

>  <Endpoint Name>
IC50

>  <Units Label>
nM

>  <Val>
46

$$$$
>  <Sample Smiles>
CCCCn1c(=O)c2ccccc2c2cc(C(O)(C(F)(F)F)C(F)(F)F)ccc21

>  <Endpoint Name>
IC50

>  <Units Label>
nM

>  <Val>
1200

$$$$
>  <Sample Smiles>
Cn1c(=O)c2ccccc2c2cc(C(O)(C(F)(F)F)C(F)(F)F)ccc21

>  <Endpoint Name>
IC50

>  <Units Label>
nM

>  <Val>
340

$$$$
